# Test system: OVCAR-8
# Test name: NCI tumour cell line growth inhibition, 48 h
Calls of active or inactive are those of the source. Rule as the data show it: active = GI50 up to about 1.1 µM and inactive = higher.
Labels: active, inactive

{"columns": ["Compound", "Discrete label"],
 "data": [
  ["Cc1cccc(C)c1NC(=O)CCc1nnc2s/c(=C\\c3ccc(Cl)cc3)c(=O)n12", "inactive"],
  ["Cc1nc2ccccc2[s+]c1-c1cnc(NC#N)nc1C(=O)Nc1cccc(Cl)c1", "inactive"],
  ["NC(N)NCCCc1cn2c(n1)C1CCCN1C(=O)C2Cc1ccccc1 (stereo not given)", "inactive"],
  ["CC1(C)CC(=O)c2c(nc3c(ccc4ccccc43)c2-c2ccc(NC(=O)CCCC(=O)Nc3ccc(-c4c5c(nc6c4ccc4ccccc46)CC(C)(C)CC5=O)cc3)cc2)C1", "inactive"],
  ["CSC(=O)/C=C1\\SS/C(=C\\C(=O)SC)S1", "inactive"],
  ["CC(C)CC(CNC(Cc1ccc(Cl)cc1)C(N)=O)NC(=O)C(Cc1c[nH]cn1)NC(=O)CNC(=O)C(NC(=O)C(C)NC(=O)C(Cc1c[nH]c2ccccc12)NC(=O)C(CCC(=O)O)NC(=O)C(N)Cc1ccccc1)C(C)C (stereo not given)", "inactive"],
  ["CSC1=NC(=O)CCN1C1OCC(OC(C)=O)C(OC(C)=O)C1OC(C)=O (stereo not given)", "inactive"],
  ["COc1cc(/C=C2/SC(c3ccccc3)N(c3ccccc3Cl)C2=O)cc(OC)c1OC (stereo not given)", "inactive"],
  ["COc1cccc(CCNC(=O)Cc2ccccc2CCO)c1", "inactive"],
  ["C/C(=N/NC(=S)N1CC2CCC(CC2)C1)c1cnccn1", "active"],
  ["Cn1c(N=P(c2ccccc2)(c2ccccc2)c2ccccc2)c([N+](=O)[O-])c(=O)n(C)c1=O", "active"],
  ["O=Cc1ccccc1CCn1c(=O)c2cc3c(=O)n(CCc4ccccc4C=O)c(=O)c3cc2c1=O", "inactive"],
  ["COc1ccc(NC(=O)CC2S/C(=N\\c3ccccc3C)NC2=O)c([N+](=O)[O-])c1 (stereo not given)", "inactive"],
  ["COc1cc(/C=C/c2nc(NC(=S)Nc3ccccc3)nnc2C)cc(OC)c1OC", "inactive"],
  ["O=[N+]([O-])C(=C1c2ccccc2-c2ccccc21)[N+](=O)[O-]", "inactive"],
  ["Cc1c(C2Cc3ccccc3N2)c2ccccc2n1C (stereo not given)", "inactive"],
  ["COc1cc(/C=C/C(=O)C2(C(=O)/C=C/c3cc(OC)c(OC)c(OC)c3)CCCCC2)cc(OC)c1OC", "inactive"],
  ["CCCCNN", "inactive"],
  ["O=C1CCCN1CCC/N=c1/cc2n(-c3ccc(Cl)cc3)c3ccccc3nc-2cc1Nc1ccc(Cl)cc1", "inactive"],
  ["CN(C)c1ccc(/C=c2/c3ccccc3n3c2cc(NC(=O)NCCC[N+](C)(C)C)[n+]3C)cc1", "inactive"],
  ["CC(=O)c1cccc(Nc2nc3ccc(Cl)cc3c3[nH]c4ccccc4c23)c1", "inactive"],
  ["Cc1cc(-c2nc3cc(O)ccc3s2)ccc1N", "inactive"],
  ["CCCCCC[C@@H]1CCC2C(CO)[C@@H](O)CC[C@@H]2C1 (stereo not given in full)", "inactive"],
  ["CN(C)CCC(/C=C/c1ccccc1)=N\\Nc1ccc(Cl)c(Cl)c1", "inactive"],
  ["O=[N+]([O-])c1ccc2oc(=N/c3ccccc3)/c(=N\\c3ccccc3)[nH]c2c1", "inactive"],
  ["CC(=O)c1ccc(-c2ccc(C(C)=O)s2)s1", "inactive"],
  ["Cc1occ2c1C(=O)CC1C2[C@@H](O)CC2C(C)(C)CCC[C@]12C (stereo not given in full)", "inactive"],
  ["O=C1/C(=C/c2ccc(O)cc2)CCc2ccccc21", "inactive"],
  ["O=C(CCCCCCCCC(=O)OCC1OC(n2cnc3c(=O)[nH]cnc32)C(O)C1O)OCC1OC(n2cnc3c(=O)[nH]cnc32)C(O)C1O (stereo not given)", "inactive"],
  ["CN(C)/N=C1\\C=C2CC[C@H](O[Si](C)(C)C(C)(C)C)[C@@]2(C)CC1", "inactive"],
  ["Clc1ccc(-c2ccc(-c3nnc(CCc4nnc(-c5ccc(-c6ccc(Cl)cc6)o5)o4)o3)o2)cc1", "inactive"],
  ["OCc1cccc(Nc2nc(O)c3[nH]cnc3n2)c1", "inactive"],
  ["Cc1cc(O)nc(NN2C(Cl)C(=O)C2c2cccc(Cl)c2)n1 (stereo not given)", "inactive"],
  ["S=C1NCCN1C(=S)NC1CCCCC1", "inactive"],
  ["CN(O)C(=O)CCC(NC(=O)CCC(N)C(=O)O)C(=O)NCC(=O)O (stereo not given)", "inactive"],
  ["COc1ccc(/C=C/c2cc(OC)c(OC(C)=O)c(OC)c2)cc1", "inactive"],
  ["CCOC(=O)c1[nH]c2cc(OC)c(OC)cc2c1CN(C)C", "inactive"],
  ["CC(=O)c1ccc2c3c1O[C@H]1c4[nH]c5ccccc5c4C[C@@]4(O)[C@@H](C2)N(CC2CC2)CC[C@]314", "inactive"],
  ["C=C(C(=C)P(=S)(C(C)C)C(C)C)P(=S)(C(C)C)C(C)C", "inactive"],
  ["CS(=O)(=O)CS(=O)(=O)OCCCl", "inactive"]
]}

* * *

# System: HCC 2998
# Test name: NCI tumour cell line growth inhibition, 48 h
Calls of active or inactive are those of the source. Cut-off read from the data, not from the text of the source: active = GI50 up to about 1.1 µM and inactive = higher.

{"columns": ["Molecule", "Measured target", "GI50"],
 "data": [
  ["O=C(CCNC(=O)OCc1ccccc1)OCCCNC(=O)OCc1ccccc1", "HCC 2998", "> 100 µM (inactive)"],
  ["Cc1ncc([N+](=O)[O-])n1CCNC(=O)CCCCCn1ccnc1[N+](=O)[O-]", "HCC 2998", "> 100 µM (inactive)"],
  ["Cn1c(=O)oc2cc(C3CCC(=O)N3Cc3csc(-c4ccccc4)n3)ccc21 (configuration not stated)", "HCC 2998", "> 100 µM (inactive)"],
  ["CCOC(=O)C(NC(=O)CC)(N1CCN(c2cc3c(cc2F)c(=O)c(C(=O)O)cn3C2CC2)CC1)C(F)(F)F (configuration not stated)", "HCC 2998", "> 100 µM (inactive)"],
  ["Cc1cc(O)nc(NN2C(Cl)C(=O)C2c2cccc(Cl)c2)n1 (configuration not stated)", "HCC 2998", "31.2 µM (inactive)"],
  ["CNC(=O)C1(C#N)C(c2ccccc2)C(C#N)(C(=O)NC)C1c1ccccc1 (configuration not stated)", "HCC 2998", "> 100 µM (inactive)"],
  ["Brc1ccc(-c2[nH]c3ccccc3c2/N=N\\c2ccccc2)cc1", "HCC 2998", "16.8 µM (inactive)"],
  ["O=[N+]([O-])C(=C1c2ccccc2-c2ccccc21)[N+](=O)[O-]", "HCC 2998", "70.5 µM (inactive)"],
  ["CC(=O)NC(Cc1ccc(O)cc1)C(=O)O (configuration not stated)", "HCC 2998", "> 100 µM (inactive)"],
  ["C=C=C(Sc1ccccc1)C(C)(C)O", "HCC 2998", "> 100 µM (inactive)"],
  ["CCCC[C@@H]1CCN2C[C@@H](O)[C@@H](O)[C@H]2[C@@H]1O", "HCC 2998", "> 100 µM (inactive)"],
  ["CCOC(=O)c1[nH]c2cc(OC)c(OC)cc2c1CN(C)C", "HCC 2998", "> 100 µM (inactive)"],
  ["Cc1nc2c(o1)C(=O)c1ccccc1/C2=N/C1CCCCC1N (configuration not stated)", "HCC 2998", "1.65 µM (inactive)"],
  ["O=c1[nH]nc(-c2ccccc2)n1/N=C/c1ccccc1O", "HCC 2998", "> 100 µM (inactive)"],
  ["CCN(CC)c1cccc2c1C1(O)CCC3(CC21)OCCCCO3 (configuration not stated)", "HCC 2998", "> 100 µM (inactive)"],
  ["N=c1sc2ccccc2n1CC[S-].c1ccc2c(c1)sc1[n+]2CCS1", "HCC 2998", "17.1 µM (inactive)"],
  ["O=c1c2cccnc2ncn1CCCN1CCOCC1", "HCC 2998", "> 100 µM (inactive)"],
  ["COc1cc(C)c(S(=O)(=O)N(CCCN)OCCCN)c(C)c1C", "HCC 2998", "16.6 µM (inactive)"],
  ["CSC1=NC(=O)CCN1C1OCC(OC(C)=O)C(OC(C)=O)C1OC(C)=O (configuration not stated)", "HCC 2998", "21.8 µM (inactive)"],
  ["CC(C)(CO)CNc1cc(Cl)nc(N)n1", "HCC 2998", "> 100 µM (inactive)"],
  ["CC(C)CC(CNC(Cc1ccc(Cl)cc1)C(N)=O)NC(=O)C(Cc1c[nH]cn1)NC(=O)CNC(=O)C(NC(=O)C(C)NC(=O)C(Cc1c[nH]c2ccccc12)NC(=O)C(CCC(=O)O)NC(=O)C(N)Cc1ccccc1)C(C)C (configuration not stated)", "HCC 2998", "> 133 µM (inactive)"],
  ["CN(CC(=O)O)CC(=O)O", "HCC 2998", "> 100 µM (inactive)"]
]}

The measured values listed here are drawn from ChEMBL document CHEMBL1201862.
